For each of the sequences below, state its protein stability index.
tested on: Saccharomyces cerevisiae; assay: protein stability index of tFT-peptide fusion (C-terminal peptide) (PSI (0-1 scale)); higher = more stable (slower turnover); conditions: genetic background: wild type; temperature: 30 C

>  <Record sequence>
ALGVGLDEILVM

>  <Study target>
Saccharomyces cerevisiae

>  <protein stability index>
0.556

$$$$
>  <Record sequence>
YSGYRASLVFEI

>  <Study target>
Saccharomyces cerevisiae

>  <protein stability index>
0.648

$$$$
>  <Record sequence>
TPAIPTTLMSLR

>  <Study target>
Saccharomyces cerevisiae

>  <protein stability index>
0.67

$$$$
>  <Record sequence>
VAPPVLCRCSLR

>  <Study target>
Saccharomyces cerevisiae

>  <protein stability index>
0.648

$$$$
>  <Record sequence>
KTKTKKKERNRK

>  <Study target>
Saccharomyces cerevisiae

>  <protein stability index>
0.622

$$$$

Record protein stability index for all entries; do not skip any.
1. EVAFGLLPPHDS
2. PPPPPAPLLLLP
3. NGWGKWTKTVCQ
4. SQFLRPSAVAPS
5. DVGWRATGVLGG
6. RMGWSGKVGVVG
7. PGWHLDPITALP
8. PPPFPYRTALLP

Response:
[0.701, 0.78, 0.646, 0.642, 0.711, 0.78, 0.712, 0.708]

Record protein stability index for all entries; do not skip any.
1. SPPRSCLPRPPD
2. FVGGNEGSYWAS
3. PSLPLPSPPPFP

Response:
1. 0.676
2. 0.751
3. 0.643

Prompt: For "GGVVGVMWGGVR" , what is its reported protein stability index?
Response: 0.624

---

system: Saccharomyces cerevisiae; experiment: protein stability index of tFT-peptide fusion in deletion strain of DOA10 (PSI (0-1 scale)); higher = more stable (slower turnover)
For each of the sequences below, state its protein stability index.
Answers are plain numbers.

Completed entries (count: 8):
>  <Record sequence>
CLVSLPILLFMR

>  <Value kind>
protein stability index

>  <Value measured>
0.56

$$$$
>  <Record sequence>
GLYMCSVGCWFS

>  <Value kind>
protein stability index

>  <Value measured>
0.445

$$$$
>  <Record sequence>
CLVSLPILLPFR

>  <Value kind>
protein stability index

>  <Value measured>
0.67

$$$$
>  <Record sequence>
RVTRSDAIYFRI

>  <Value kind>
protein stability index

>  <Value measured>
0.695

$$$$
>  <Record sequence>
CLVSLPILMFFR

>  <Value kind>
protein stability index

>  <Value measured>
0.591

$$$$
>  <Record sequence>
CLVSLPILLRFR

>  <Value kind>
protein stability index

>  <Value measured>
0.647

$$$$
>  <Record sequence>
CLVSAPILLFFR

>  <Value kind>
protein stability index

>  <Value measured>
0.639

$$$$
>  <Record sequence>
AITLPMCPLTLR

>  <Value kind>
protein stability index

>  <Value measured>
0.672

$$$$

Record protein stability index for all entries; do not skip any.
1. RVTRLDKIYFRI
2. RVTRLDAIYFRQ
3. RSLRVLLPLYKR

Response:
[0.51, 0.589, 0.662]

---

system: Saccharomyces cerevisiae; experiment: protein stability index of tFT-peptide fusion (C-terminal peptide) (PSI (0-1 scale)); higher = more stable (slower turnover); settings: genetic background: das1 deletion; temperature: 30 C
For each of the sequences below, state its protein stability index.
One number for each entry.

Completed entries (count: 5):
>  <Record sequence>
GIPNFKLKVTQI [GAB1 C-terminal 12 aa]

>  <Value kind>
protein stability index

>  <Value measured>
0.69

$$$$
>  <Record sequence>
QLIDIAKKMGIL [BIR1 C-terminal 12 aa]

>  <Value kind>
protein stability index

>  <Value measured>
0.678

$$$$
>  <Record sequence>
ESGLQSINESTL [ALY2 C-terminal 12 aa]

>  <Value kind>
protein stability index

>  <Value measured>
0.707

$$$$
>  <Record sequence>
VLVFSWRHIFCF [YJL120W C-terminal 12 aa]

>  <Value kind>
protein stability index

>  <Value measured>
0.467

$$$$
>  <Record sequence>
DPEPPKEDPHDH [TCP1 C-terminal 12 aa]

>  <Value kind>
protein stability index

>  <Value measured>
0.706

$$$$

Record protein stability index for all entries; do not skip any.
1. CCCFLLELVCDN [YDR210W C-terminal 12 aa]
2. TDDNNIQTILLK [YIG1 C-terminal 12 aa]
3. EIAADDTKKQEK [SOK2 C-terminal 12 aa]
4. ELSNNLNVDEFV [LRS4 C-terminal 12 aa]

Response:
0.512
0.679
0.672
0.692

---

For each of the sequences below, state its protein stability index.
tested on: Saccharomyces cerevisiae; test: protein stability index of tFT-peptide fusion (C-terminal peptide) (PSI (0-1 scale)); higher = more stable (slower turnover); conditions: genetic background: wild type; temperature: 30 C
Give bare numbers.

Completed entries (count: 5):
>  <Record sequence>
DSNTAGLTRDIA

>  <Study target>
Saccharomyces cerevisiae

>  <protein stability index>
0.645

$$$$
>  <Record sequence>
RLGLQWGEFGTL

>  <Study target>
Saccharomyces cerevisiae

>  <protein stability index>
0.72

$$$$
>  <Record sequence>
NGSPFFFNRLFT

>  <Study target>
Saccharomyces cerevisiae

>  <protein stability index>
0.702

$$$$
>  <Record sequence>
PVPSRAQTRSRA

>  <Study target>
Saccharomyces cerevisiae

>  <protein stability index>
0.65

$$$$
>  <Record sequence>
VGRLGPMVGLLL

>  <Study target>
Saccharomyces cerevisiae

>  <protein stability index>
0.6

$$$$

Below: the item to evaluate.
Prompt: For "PLGVGLVDGEAP" , what is its reported protein stability index?
Response: 0.715

---

system: Saccharomyces cerevisiae; assay: protein stability index of tFT-peptide fusion (C-terminal peptide) (PSI (0-1 scale)); higher = more stable (slower turnover); conditions: genetic background: wild type; temperature: 30 C
For each of the sequences below, state its protein stability index.

Completed entries (count: 3):
>  <Record sequence>
ARWGVGLWRGAS

>  <protein stability index>
0.299

$$$$
>  <Record sequence>
HINRTIWARYQV

>  <protein stability index>
0.174

$$$$
>  <Record sequence>
PLRVFFLVAFCL

>  <protein stability index>
0.326

$$$$

Record protein stability index for all entries; do not skip any.
1. WLSFAIECGMVW
2. HANPGTFGPCTR
3. IDLVAFCTIFAL
4. FFRVCNALLLVC
5. LWLFIVCWVGCV
6. SYMWLVEVLLFI
7. VISGFVLVFRVR
8. LFSFVCLVFFLW

Response:
0.249
0.65
0.33
0.0394
0.177
0.189
0.344
0.27

Record protein stability index for all entries; do not skip any.
1. FLLASSRRICCS
2. DLRFAWLLSCFS

Response:
1: 0.269; 2: 0.334

---

system: Saccharomyces cerevisiae; experiment: protein stability index of tFT-peptide fusion (C-terminal peptide) (PSI (0-1 scale)); higher = more stable (slower turnover); conditions: genetic background: wild type; temperature: 30 C
For each of the sequences below, state its protein stability index.
Numbers only.

>  <Record sequence>
LLCFGGRGPLAD

>  <protein stability index>
0.713

$$$$

Record protein stability index for all entries; do not skip any.
1. CVSSALRVPGRE
2. GGGTVGCVVALA
3. PPPRPHPTRLSY
4. RRVGPVSPNWIS
5. IDPTLPARAAPP

Response:
1: 0.699; 2: 0.64; 3: 0.576; 4: 0.65; 5: 0.737

---

system: Saccharomyces cerevisiae; experiment: protein stability index of tFT-peptide fusion (C-terminal peptide) (PSI (0-1 scale)); higher = more stable (slower turnover); settings: genetic background: wild type; temperature: 30 C
For each of the sequences below, state its protein stability index.
One number for each entry.

Completed entries (count: 2):
>  <Record sequence>
KRQGRTLYGFGG [YBR009C; YNL030W C-terminal 12 aa]

>  <protein stability index>
0.693

$$$$
>  <Record sequence>
GGFFKKLAQLLK [MDG1 C-terminal 12 aa]

>  <protein stability index>
0.719

$$$$

Prompt: For GKSHPFHSSDRY [YJL211C C-terminal 12 aa] , what is its reported protein stability index?
Response: 0.699

---

For each of the sequences below, state its protein stability index.
tested on: Saccharomyces cerevisiae; experiment: protein stability index of tFT-peptide fusion (C-terminal peptide) (PSI (0-1 scale)); higher = more stable (slower turnover); settings: genetic background: wild type; temperature: 30 C
Answers are plain numbers.

Completed entries (count: 4):
>  <Record sequence>
KLKIINENKLQN

>  <Study target>
Saccharomyces cerevisiae

>  <protein stability index>
0.618

$$$$
>  <Record sequence>
IWLAFCTLRPVS

>  <Study target>
Saccharomyces cerevisiae

>  <protein stability index>
0.591

$$$$
>  <Record sequence>
KRETKSKGQAQA

>  <Study target>
Saccharomyces cerevisiae

>  <protein stability index>
0.602

$$$$
>  <Record sequence>
WAGGRHCKGVVV

>  <Study target>
Saccharomyces cerevisiae

>  <protein stability index>
0.681

$$$$

Record protein stability index for all entries; do not skip any.
1. DGRMGAGVAGTG
2. TTVRTVSLIDRI
3. VCGLRFLLFGCG
4. PPSVPPPLPHPV

Response:
1: 0.636; 2: 0.689; 3: 0.63; 4: 0.74
